Where these numbers come from: patent US6737383B1

Tested on: giant foxtail
Assay: Test B pre/postemergence giant foxtail
Type: in vivo, Setaria faberii
Details: Preemergence, Rate 500 g/ha; scale of 0 to 10 where 0 is no effect and 10 is complete control
Protocol: […] At the same time, these crop and weed species were also treated with postemergence applications of test chemicals formulated in the same manner. […] Treated plants and controls were maintained in a greenhouse for twelve to sixteen days, after which all species were compared to controls and visually evaluated. […]
Property Name: Giant foxtail plant response rating
Answer with a bare number; do not write a unit.

Study these solved cases before continuing.
>>> numeric_result("CC(C)=CCn1c(=O)on(C(=O)N(c2ccc(Cl)cc2)C(C)C)c1=O")
10
>>> numeric_result("CC(C)N(C(=O)n1oc(=O)n(C2CCCCO2)c1=O)c1ccc(F)cc1 (stereo not drawn)")
0
>>> numeric_result("Cc1nsc(Cl)c1Cn1c(=O)on(C(=O)N(c2ccc(F)cc2)C(C)C)c1=O")
10
>>> numeric_result("CC(C)C(C)n1c(=O)on(C(=O)N(c2ccc(F)cc2)C(C)C)c1=O (stereo not drawn)")
10

Given the entry CCc1nc(C)c(Cn2c(=O)on(C(=O)N(c3ccc(Cl)cc3)C(C)C)c2=O)s1 , report its measured Giant foxtail plant response rating.
10

* * *

System: blackgrass
Test: Test B pre/postemergence blackgrass
Assay type: in vivo, Alopecurus myosuroides
Conditions: Preemergence, Rate 125 g/ha; scale 0 to 10 (0 no effect, 10 complete control)
Property Name: Plant response rating, Blackgrass
Provide a numeric answer; units are not to be included.

>>> numeric_result("CCN(CC)C(=O)n1oc(=O)n(-c2ccc(OC)cc2)c1=O [Compound 1]")
0

Given CCN(C(=O)n1oc(=O)n(-c2ccc(C)cc2C)c1=O)C1CCCCC1 [Compound 26] , state its recorded Plant response rating, Blackgrass.
0

Subsequent entry: Cc1ccccc1-n1c(=O)on(C(=O)N(c2ccc(C#N)cc2)C(C)C)c1=O [Compound 51]
0

Param item: Cc1ccccc1-n1c(=O)on(C(=O)N(C2=CCOCC2)C(C)C)c1=O [Compound 10]
4

// repeat for CCCn1c(=O)on(C(=O)N(c2ccc(Cl)cc2)C(C)C)c1=O [Compound 119] and report
8

* * *

Tested on: morningglory
Assay: Test B pre/postemergence morningglory
Type: in vivo, Ipomoea hederacea
Conditions: Postemergence, Rate 500 g/ha; scale of 0 to 10 where 0 is no effect and 10 is complete control
The compounds listed here are annotated with their Plant response rating, Morningglory.
Number only, please.

These solved cases illustrate the format of a correct answer.
>>> numeric_result("CC(C)N(C(=O)n1oc(=O)n(CC(C)[N+](=O)[O-])c1=O)c1ccccc1 (centres unmarked) [Compound 604]")
2
>>> numeric_result("CCc1nc(C)c(C(C)n2c(=O)on(C(=O)N(c3ccc(Cl)cc3)C(C)C)c2=O)s1 (centres unmarked) [Compound 590]")
4
>>> numeric_result("CCC(C)n1c(=O)on(C(=O)N(c2ccc(F)cc2)C(C)C)c1=O (centres unmarked) [Compound 613]")
8
>>> numeric_result("CC(C)N(C(=O)n1oc(=O)n(CCCC#N)c1=O)c1ccc(F)cc1 [Compound 647]")
6
>>> numeric_result("CC(C)N(C(=O)n1oc(=O)n(CCCCF)c1=O)c1ccccc1 [Compound 581]")
10
>>> numeric_result("CCc1nc(C)c(C(C)n2c(=O)on(C(=O)N(c3ccc(F)cc3F)C(C)C)c2=O)s1 (centres unmarked) [Compound 589]")
6
>>> numeric_result("CCOCn1c(=O)on(C(=O)N(c2ccccc2)C(C)C)c1=O [Compound 563]")
10

Consider now this further compound.
# Plant response rating, Morningglory lookup, item CC(C)N(C(=O)n1oc(=O)n(CC2=NOCCC2)c1=O)c1ccc(F)cc1 [Compound 601]
1
